Where do these numbers come from? They come from ChEMBL document CHEMBL3507680.

Would you mind telling me the reported cytotoxicity at 70.5 h of each entry?
Assay: Human HepG2 cell viability assay in 384 well format
Format: toxicity, cell-based
Design: dose 125 nL, time 70.5 hour; concentration not given beside the values
Details: HepG2 cells, read-out: Inhibition
A number alone suffices; assume %.

// field: cytotoxicity at 70.5 h; key: "CC1(CNS(=O)(=O)c2cccc(C(=O)N3CCSCC3)c2)COC1" ; value = -6.9

cytotoxicity at 70.5 h measured on "COCCNc1ccc(-c2noc([C@@H]3CCCN3)n2)cn1" = 6.15

// sample "CN1CCC/C1=N\S(=O)(=O)c1ccc(NC(=O)c2cccs2)cc1" , its cytotoxicity at 70.5 h was -2.28

Field cytotoxicity at 70.5 h (entry O=c1[nH]c(CCN2CCCC2Cn2cccn2)nc2ccccc12 (configuration not stated) ) reads -9.61

Input "COc1c(CNCc2ccc(OCC(N)=O)cc2)c(C)nn1C" . Output cytotoxicity at 70.5 h: 7.56

For this compound ( "Cn1cnc2c(-c3ccccc3)nc(C3CCNCC3)cc21" ), measured cytotoxicity at 70.5 h is 13.6

Cc1ccccc1CCNC(=O)N1CCCC(c2nncn2C)C1 (configuration not stated) has a reported cytotoxicity at 70.5 h of -9.14

Entry under test: O=C1CN(C(=O)C2CN(c3cccc(F)c3)CCO2)CCN1 (configuration not stated) . Its cytotoxicity at 70.5 h was -5.92

The value of cytotoxicity at 70.5 h measured for the compound NC(=O)C1CCCN1Cc1ccccc1NC(=O)Cc1cccc(F)c1 (configuration not stated) turned out to be -0.431

Entry "CN(Cc1cc(C[C@@H]2C[C@H](N)C2(C)C)no1)c1ccccc1" ; cytotoxicity at 70.5 h = -5.24

Form: compound = Cc1ccc(CN2CCCC3(CCCC(=O)N3C)C2)s1 (configuration not stated) ; cytotoxicity at 70.5 h = -9.33

Lookup result for "CCn1c(N)nc2cc(C(=O)NCCc3ccccc3C)cnc21" ; measured cytotoxicity at 70.5 h: -5.73

###

Please go through the items and note down their cytotoxicity at 70.5 h.
Experiment: Human HepG2 cell viability assay in 384 well format
Format: toxicity, cell-based
Parameters: dose 125 nL, time 70.5 hour; concentration not given beside the values
Details: HepG2 cells, read-out: Inhibition

Record "Cc1nccn1CCCN1CCC2(CCC(=O)N(CC3CC3)C2)CC1" . Reported cytotoxicity at 70.5 h: -7.09%

cytotoxicity at 70.5 h for "Cc1nnc([C@H]2CCN(CCCc3ccccc3)C2)o1" is 8.95%

Value of cytotoxicity at 70.5 h reported for the compound COCCOc1cccc(C(=O)N2CCCC(n3ccnc3)C2)c1 (stereo unspecified) is -4.62%

Notebook: CCn1cc(S(=O)(=O)NCC(OC)c2cccc(Cl)c2)cn1 (stereo unspecified) , cytotoxicity at 70.5 h read as -6.64%

get_value(item= COc1cccc(CN2CCN(CC(C)C)C(=O)C2C)c1O (stereo unspecified) , readout=cytotoxicity at 70.5 h) returns 0.611%

Looking up "Cc1cccc(COC[C@@]23CCC[C@@H]2CN(C(=O)Cc2ccco2)C3)n1" , I see its cytotoxicity at 70.5 h listed as -8.53%

###

For each record, write down the corresponding cytotoxicity at 70.5 h.
Experiment: Human HepG2 cell viability assay in 384 well format
Type: toxicity, cell-based
Set-up: dose 125 nL, time 70.5 hour; concentration not given beside the values
Settings: HepG2 cells, read-out: Inhibition
Dear colleague, please return just the value in %, with no unit written.

cytotoxicity at 70.5 h for "CCc1nc2c(c(NC3CC3)n1)CCN(C(=O)N1CCN(C)CC1)CC2" is -19.1

Reported cytotoxicity at 70.5 h for Cc1nn(C)c2nc(N(CCOc3ccccc3)CC3CCCO3)sc12 (centres undefined) was 21

Form: molecule = CC1COCCN1Cc1nc(Cc2ccccc2)no1 (centres undefined) ; cytotoxicity at 70.5 h = -8.66

Query "CNC(=O)[C@@H](C1CCCCC1)N1CCC[C@H]1C(=O)NC1CC1" yields cytotoxicity at 70.5 h of -20.1

Please fill in: cytotoxicity at 70.5 h reported for "Cc1ccc(C(=O)Nc2cn[nH]c2)cc1" = -6.42

According to the records, this molecule "COc1cc(Oc2cnc3ccccc3n2)ccc1CN1CCCC1" displays cytotoxicity at 70.5 h of -3.39

Documented cytotoxicity at 70.5 h of "Cc1nn(C)c2c(NCc3ccccn3)ncnc12" : -2.17

The molecule listed as "CCn1cnnc1C1CCN(C(=O)c2ccnc(N(C)C)c2)CC1" shows cytotoxicity at 70.5 h equal to -8.14

Given item CCc1noc(C(C)N2CCN(Cc3cnc(C)cn3)CC2)n1 (centres undefined) , the value recorded as its cytotoxicity at 70.5 h is 16.3

Lab note: Cc1cc(C)n(CC2CCCN2C(=O)c2cccc(C#N)c2)n1 (centres undefined) gave cytotoxicity at 70.5 h of -2.63

Lab book: cytotoxicity at 70.5 h of "O=C(NCc1nncn1C1CC1)C1(c2ccc(F)cc2)CCOCC1" noted as 16.9

GET /value?item= "Cc1ccc(S(=O)(=O)NC(=O)CCc2cscn2)cc1Cl" &field=cytotoxicity at 70.5 h returns 25.6

// sample "CCN(CC)C(=O)C1CCN(c2ccc(Cl)cc2C#N)CC1" , its cytotoxicity at 70.5 h was 10.1

Summary for this molecule, "c1ccc(CN2CCC(c3nccnc3-n3ccnc3)CC2)cc1" : cytotoxicity at 70.5 h is -14.9

Form field cytotoxicity at 70.5 h, entry Cc1ccc(N2CCCC(NC(=O)Nc3cnn(C)c3)C2=O)cc1 (centres undefined) : 9.02

Record "O=C(Nc1cccnc1)[C@H]1C[C@@H]2CN(Cc3ccc(F)cc3)C[C@H]1O2" . Reported cytotoxicity at 70.5 h: -7.11

Recorded result, "CCc1cnccc1C(=O)NC1CCN(C(=O)C2CCCCC2)CC1" , cytotoxicity at 70.5 h: -8.95

For this molecule ( Cc1cnn(C2CCCN(C(=O)c3ccc(-n4cnnn4)cc3)C2)c1 (centres undefined) ), measured cytotoxicity at 70.5 h is 0.981

// "CN1CC2(CCN(C(=O)c3ccc4nccnc4c3)CC2)CC1=O" : cytotoxicity at 70.5 h value = -4.39

Quick note, cytotoxicity at 70.5 h for "CCN(CCNCc1ccc(C#N)cc1)C1CC1" landed at -6.58

# molecule "Cc1cccc(CN2C[C@@H](C)[C@@]3(CCN(CC(=O)N(C)C)C3=O)C2)c1" ; its cytotoxicity at 70.5 h = -10

Entry CCc1nc(CN(C(C)=O)C2CCN(CCc3ccccc3)C2)no1 (centres undefined) — recorded cytotoxicity at 70.5 h = -5

Consider CC(NCc1cccc(Cl)c1)c1ccc(OCC(=O)NC2CC2)cc1 (centres undefined) . Its measured cytotoxicity at 70.5 h is -4.37

// cytotoxicity at 70.5 h value for "Cc1oc(-c2ccco2)nc1CC(=O)N1CCN(CC(C)(C)O)CC1" : -17.8
